The reported measurements were obtained from patent US20250154686A1.

molecular target: Bcl-2 protein (Recombinant Human Bcl-2 Protein) (Homo sapiens, UniProt P10415); construct: purchased Novus Biologicals NBP2-34889; experiment: AS-MS evaluation of binding of the Example 4 mixture library (1200 compounds/well) to Bcl-2, ASMS ratio (%); details: AS-MS, Example 4 mixture library, Bcl-2, replicate n = 1
Sequence (P10415 whole entry): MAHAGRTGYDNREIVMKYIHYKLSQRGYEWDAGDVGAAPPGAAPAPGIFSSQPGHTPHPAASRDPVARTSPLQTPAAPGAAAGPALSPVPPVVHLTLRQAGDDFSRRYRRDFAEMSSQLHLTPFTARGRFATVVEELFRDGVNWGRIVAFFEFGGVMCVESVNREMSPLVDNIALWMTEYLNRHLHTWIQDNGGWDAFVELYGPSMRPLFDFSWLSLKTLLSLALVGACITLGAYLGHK
// reported ASMS ratio (%) n = 1 per item

[
  {
    "molecule": "CCOc1cncc(-c2ccc(C(=O)N3CCN(c4ccc(C(=O)NS(=O)(=O)CCC(F)(F)F)nn4)CC3)c3ccccc23)c1",
    "ASMS ratio (%) n = 1": "0.0%"
  },
  {
    "molecule": "CCOc1cncc(-c2cc(C(=O)N3CCN(c4ccc(C(=O)NS(=O)(=O)CCC(F)(F)F)nn4)CC3)cc(C(C)(C)C)c2)c1",
    "ASMS ratio (%) n = 1": "0.0%"
  },
  {
    "molecule": "CCOc1cncc(-c2ccc(CN3CCN(c4ccc(C(=O)NS(=O)(=O)CCC(F)(F)F)nn4)CC3)c3ccccc23)c1",
    "ASMS ratio (%) n = 1": "0.0%"
  },
  {
    "molecule": "CCOc1cncc(-c2cc(CN3CCN(c4ccc(C(=O)NS(=O)(=O)c5ccc(NCCSc6ccccc6)c(C(F)(F)F)c5)nn4)CC3)cc(OC(F)(F)F)c2)c1",
    "ASMS ratio (%) n = 1": "22.4%"
  },
  {
    "molecule": "CCOc1cncc(-c2ccc(CN3CCN(c4ccc(C(=O)NS(=O)(=O)c5ccc(NCCSc6ccccc6)c(C(F)(F)F)c5)nn4)CC3)cc2F)c1",
    "ASMS ratio (%) n = 1": "15.8%"
  },
  {
    "molecule": "CCOc1cncc(-c2ccc(C(C)N3CCN(c4ccc(C(=O)NS(=O)(=O)c5ccc(NCCSc6ccccc6)c(C(F)(F)F)c5)cc4)CC3)cc2)c1 (stereo not drawn)",
    "ASMS ratio (%) n = 1": "9.2%"
  }
]
